Molecular target: human recombinant Yes [a.a. 2–543 (end)] (Homo sapiens)
Construct: human recombinant Yes [a.a; 2–543 (end)]; purchased BPS Bioscience 40488
Test: ADP-Glo kinase assay, inhibition rates of Yes phosphorylation activity (first and second screening)
Assay type: biochemical
Details: first screening; mean of n = 4 wells; 10 μmol L−1 compound
measuredAttribute: First screening IR (inhibition rate) (%)

# annotated cases, reported First screening IR (inhibition rate) shown
compound	measurementUnit	measuredNumber
CCn1c(O)c(N=Nc2ccc([N+](=O)[O-])cc2S(=O)(=O)Nc2ccc(C)cc2C)c2ccccc21 [Compound Z49643067]	%	44
CCOc1ccc(O)c(/C=C2\C(=O)Nc3ccc(Cl)cc32)c1 [Compound Z44304769]	%	23
O=C(CSc1nnc(-c2ccccc2F)n1CCc1ccccc1)c1ccc[nH]1 [Compound Z16427126]	%	-9
CCOC(=O)c1cc(-c2ccc(C#N)cc2)nc2c1c(C)nn2CCC#N [Compound Z56631499]	%	-7
C#CCN(C1CCS(=O)(=O)C1)S(=O)(=O)c1ccccc1F (stereo not shown) [Compound Z734126534]	%	-10

P: Cc1noc(C)c1COc1cccc(C(=O)N2CCN(Cc3cc(=O)n4ccsc4n3)CC2)c1 [Compound Z147054608]
Q: FC(F)(F)c1ccnc(Nc2ccc(N3CCOCC3)nc2)n1 [Compound Z318998372]
query: Thinking about recorded First screening IR (inhibition rate) values, which is higher, P or Q ? Answer = label.
result: P

---

Molecular target: human recombinant Yes [a.a. 2–543 (end)] (Homo sapiens, UniProt P07947)
Construct: human recombinant Yes [a.a; 2–543 (end)]; purchased BPS Bioscience 40488
Sequence (P07947 2-543): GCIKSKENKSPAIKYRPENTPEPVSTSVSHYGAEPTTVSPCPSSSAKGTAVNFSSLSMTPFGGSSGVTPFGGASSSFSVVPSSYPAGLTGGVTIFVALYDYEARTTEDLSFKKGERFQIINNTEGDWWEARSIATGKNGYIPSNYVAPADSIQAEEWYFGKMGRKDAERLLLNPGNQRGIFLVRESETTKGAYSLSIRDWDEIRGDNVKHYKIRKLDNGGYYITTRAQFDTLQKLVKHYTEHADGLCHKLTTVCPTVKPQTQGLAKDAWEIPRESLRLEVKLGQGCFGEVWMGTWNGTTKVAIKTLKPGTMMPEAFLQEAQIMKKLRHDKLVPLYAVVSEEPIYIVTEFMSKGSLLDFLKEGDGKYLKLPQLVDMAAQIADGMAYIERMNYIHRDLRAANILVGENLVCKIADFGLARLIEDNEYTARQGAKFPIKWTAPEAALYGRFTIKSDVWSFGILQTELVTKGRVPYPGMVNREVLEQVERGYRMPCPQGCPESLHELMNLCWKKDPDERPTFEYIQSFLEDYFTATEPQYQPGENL
Assay: ADP-Glo kinase assay, inhibition rates of Yes phosphorylation activity (first and second screening)
Assay type: biochemical
Settings: first screening; mean of n = 4 wells; 10 μmol L−1 compound
measuredAttribute: First screening IR (inhibition rate) (%)

molecule	measuredNumber
O=S(=O)(c1c(Cl)cccc1Cl)N1CCN(Cc2nc(-c3cccc(Cl)c3)no2)CC1	-8
Cn1c2ccccc2n2c3cccc(F)c3c(=O)c(C#N)c12	-1
CN(C)c1nc(N)nc(CSc2nnc(-c3ccccc3)n2C)n1	6
CCOC(=O)C1=C(CN2CCN(Cc3nc4sc5c(c4c(=O)[nH]3)CCCC5)CC2)NC(=O)NC1CC (stereo not shown)	0
COc1ccccc1NC(=O)c1ccc(NC(=O)COc2ccc(C3SCCS3)cc2)cc1	1
Cc1ccc(C)c(Cn2c(N3CCN(C/C=C/c4ccccc4)CC3)nc3c2c(=O)[nH]c(=O)n3C)c1	36

a: CCn1ncc2c(C(=O)NCC(C)(O)C(F)(F)F)cc(-c3cccs3)nc21 (stereo not shown)
b: Cc1ccc(C)c(CN2CCN(c3nc4c(c(=O)[nH]c(=O)n4C)n3Cc3ccc(Cl)cc3)CC2)c1
c: COc1ccccc1-c1cc(-c2ccccc2)c2ccccc2n1.Cl
d: NS(=O)(=O)c1ccc(S(=O)(=O)N2CCCC2)cc1
e: Cc1c(C#N)c(NC(=O)CN2CCC(n3c(=O)[nH]c4ccccc43)CC2)n(Cc2cccs2)c1C
query: Write the entries in order, lowest recorded First screening IR (inhibition rate) first. Form field (ranking): labels in requested order.
result: d, a, c, b, e

---

Biological target: human recombinant Yes [a.a. 2–543 (end)] (Homo sapiens)
Construct: human recombinant Yes [a.a; 2–543 (end)]; purchased BPS Bioscience 40488
Assay: ADP-Glo kinase assay, inhibition rates of Yes phosphorylation activity (first and second screening)
Type: biochemical
Settings: first screening; mean of n = 4 wells; 10 μmol L−1 compound
Protocol: All inhibitory assays of the phosphorylation activity of Yes were performed in accordance with the Promega Technical Manual for the ADP-Glo™ Kinase Assay (Fitchburg, WI, USA. Catalog number: V9102). The human recombinant Yes [a.a. […] The screening was conducted in three steps consisting of the first screening, the second screening, and the IC50 determination, as can be illustrated in Fig. 1b. First, we determined the inhibition rates of the 1,991 compounds. […]
measuredAttribute: First screening IR (inhibition rate) (%)

// known answers, use as guide
compound	First screening IR (inhibition rate) [%]
O=[N+]([O-])c1cc2c(c(CN(Cc3ccccc3)S(=O)(=O)c3cccc(C(F)(F)F)c3)c1)OCOC2	7
Cn1nc(Br)c2c(N3CCCC34CCCCC4)ncnc21	38
CC(=O)Nc1ccc(/C=C2/CC(C(C)(C)C)Cc3c2nc2ccccc2c3C(=O)O)cc1 (stereo not drawn)	26
COCCOc1ccc(CNc2ncnc3ccccc23)cn1	-2

I: CCOc1cc(/C=C2/CCCc3c2nc2ccccc2c3C(=O)O)ccc1OC
II: Cc1sc2ncnc(N/N=C/c3ccncc3)c2c1C
query: Just curious, which one has the larger First screening IR (inhibition rate) reading, I or II ? Please respond with the label that marks your chosen entry.
result: I

Values from paper PMC5607274
